Parameter: IC50, calcium mobilisation assay. Scope: all listed entries.
Biological target: rat nerve growth factor (beta-NGF) (rat, UniProt P25427 122-241)
Sequence (P25427 122-241): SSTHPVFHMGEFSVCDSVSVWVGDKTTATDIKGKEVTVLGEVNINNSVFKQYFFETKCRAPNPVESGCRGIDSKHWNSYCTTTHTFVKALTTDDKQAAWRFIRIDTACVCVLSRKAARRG
Assay: cell-based or functional assay

# example entries with known answers
INSERT INTO measurements (binder, experimental_result) VALUES
  ('1064F8 human IgG4 (antibody, V domains shown) VH: EVQLVQSGAEVKKPGSSVKVSCKASGGTFSSYAYTWVRQAPGQGLEWMGGIVPIFGSTNYAQKFQGRLTITADEFTSTAHMELSSLTSADTAVYYCAGGSDLYCSGGNCYGGGHYYYYMDVWGQGTTVTVSS VL: SSELTQDPAVSVALGQTVRITCTGTSSDVGGYNYVSWYQQHPGKAPKLMIYEGSKRPSGVSNRFSGSKSGNTASLTISGLQAEDEADYYCSSYTTRSTRVFGGGTKLTVL', '5.5 nM'),
  ('1083H4 human IgG4 (antibody, V domains shown) VH: QMQLVQSGAEVKKTGSSVKVSCKASGYTFAYHYLHWVRQAPGQGLEWMGGIIPIFGTTNYAQRFQDRVTITADESTSTAYMELSSLRSEDTAVYYCASADYVWGSYRPDWYFDLWGRGTMVTVSS VL: QSVLTQPPSASGTPGQRVTISCSGSSSNIGSNTVNWYQRLPGAAPQLLIYNNDQRPSGIPDRFSGSKSGTSGSLVISGLQSEDEADYYCASWDDSLNGRVFGGGTKLTVL', '61 nM'),
  ('1024C4 human IgG4 (antibody, V domains shown) VH: QVQLQESGGGVVQPGRSLRLSCAASGFAFKKYGLHWVRQAPGKGLEWVGVTSYDGSKNYYADSVKGRFTISRDNSKNTLYLQVNSLRPEDTAVYYCAKDGEVGDLHLVPFRQDSGLDVWGRGTLVTVSS VL: QSVLTQPPSVSVSPGQTASITCSGDNLGDKYVHWYQQKPGQSPVLVTYQDTKRPSGIPERFSGSNSGNTATLTISGTQAMDEAGYYCQAWDSSTVVFGGGTKLTVL', '~565 nM'),
  ('1016A8 human IgG4 (antibody, V domains shown) VH: EVQLVQSGAELKKPGASVKVSCKASGYPFTSYYMHWVRQAPGQGLEWMGLVDPEDGETIYAEKFQGRVTITADTSTDTAYMELSSLRSEDTAVYSCATSSHNYGTASYYHYGMDVWGRGTMVTVSS VL: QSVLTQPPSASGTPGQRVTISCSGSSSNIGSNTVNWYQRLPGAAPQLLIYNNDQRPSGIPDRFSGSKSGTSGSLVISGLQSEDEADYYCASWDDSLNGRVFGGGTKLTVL', '14 nM'),
  ('1033G9 human IgG4 (antibody, V domains shown) VH: EVQLVQSGAEVRKPGSSVKVSCKASGDTSTLYSINWVRQVPGQGLEWMGAIIPIFGLTDYAQEFQGRLTITADESTNTAYMELTGLRSEDTAIYYCARNLFTTLSYWYFDLWGQGTLVTVSS VL: SSELTQDPAVSVALGQTVRITCQGDRLRSYYASWYQQKPGQAPVLVIYGKNNRPSGIPDRFSGSSSGNTASLTITGAQAEDEADYYCNSRDSSGNHVVFGGGTLLTVL', '26 nM'),
  ('1021E5 human IgG4 (antibody, V domains shown) VH: EVQLVQSGAEVKKPGSSVKVSCKASGGTFSTYGISWVRQAPGQGLEWIGGIIPIFDTGNSAQSFQGRVTITADESTSTAYMEVSSLRSDDTAVYYCASSSRIYDYAGGDHYYYDMDVWGQGTMVTVSS VL: QAVLTQPSSVSTPPGQKVTISCSGSSSNIGNNYVSWYQQLPGTAPKLLIYDNNKRPSGIPDRFSGSKSGTSATLGITGLQTGDEADYYCGTWDSSLSAWVFGGGTKLTVL', '75 nM');

Field: next binder
[in] Please look up its IC50, calcium mobilisation assay: 1022E3 human IgG4 (antibody, V domains shown) VH: QVQLVQSGAEVKKPGASVKVSCKASGYSFINYSMHWVRQAPGQGLEWIGIINPGGDSTKYTQRFQDRVTMTWDTSTSTVYMDLSSLRSEDTAIYYCARGLHPIPMMLATINPIFAYWGQGTLVTVSS VL: SSELTQDPAVSVALGQTVRITCRGDSLRNYYANWYQQKPGQAPVLVIYDENKRPSGIPDRFSGSGSGNTASLTITGAQAEDEADYFCNSRDTFGYVRDVLFGGGTKVTVL
[out] 14 nM
